assay: mitochondrial membrane potential change in A549 cells, profiling panel, cell-based, JC-1 fluorescence, basal, 24 h, 100 nL (AID 1138); conditions: higher = more signal;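 also: A549 lung adenocarcinoma cells under basal conditions with no added stimulus; test concentration not given here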
endpoint: z-score
# print the numeric value only

Query block: # query: z-score of entry CC(C)C[C@@H]1NC(=O)[C@H]2C[C@@H](C(=O)NCCCCCC[N+](C)(C)C)[C@@H](c3cccc(OCCO)c3)N2C1=O
Result block: -0.525

Query block: // lookup z-score for COC(=O)[C@@]1(Cc2ccc(F)cc2)[C@H]2c3cc(C(=O)N4CCCC4)n(CCF)c3C[C@H]2CN1C(=O)c1ccccc1
Result block: 0.0101

Query block: Endpoint output: z-score of O=C1O[C@@H](c2ccccc2)[C@@H](c2ccccc2)N2[C@@H](c3ccccc3OCCO)[C@]3(C(=O)Nc4ccc(C#CCCO)cc43)[C@@H](C(=O)N3CCN(c4ncccn4)CC3)[C@H]12 . Value?
Result block: 0.679

Query block: Requested field: z-score. Item: CC(C)C(O)C1C=CC2C(=O)N(C)C(=O)C2N1Nc1ccccc1 (configuration not stated)
Result block: -0.219

Query block: Report z-score for Cc1ccc(S[C@]2(C(=O)NC3CC3)CC(=O)N(Cc3ccccc3Cl)[C@@H]2c2ccc(CO)cc2I)cc1 please.
Result block: 0.677

Query block: Looking for the measured z-score of O=C1NC(=O)C2C1C=CC(C(O)c1c(F)cccc1Cl)N2Nc1ccccn1 (configuration not stated) , can you help?
Result block: 0.52

Query block: Field request: z-score | item: CCCNC(=O)[C@@]1(c2ccc([N+](=O)[O-])cc2)CC(=O)N(C2CCCCC2)[C@@H]1c1ccc(CO)cc1I
Result block: 1.4

----------
experiment: S. cerevisiae growth modulation with rapamycin, primary screen, strain BY4716, OD600, 96 h (AID 1091); conditions: higher = more signal, called active from +8 up or from −8 down; also: test concentration not given here
endpoint: z-score
Reply briefly: the number, and no unit.

Query block: // query z-score value for entry [N-]=[N+]=NCc1ccccc1[C@H]1OC(c2ccc(OCCCO)cc2)=N[C@@]1(CCS(=O)(=O)c1ccccc1)C(N)=O
Result block: -0.595

Query block: Report z-score for CC(C)C(O)C1C=CC2C(=O)N(C)C(=O)C2N1Nc1ccccc1 (centres undefined) please.
Result block: 0.204

Query block: For the molecule [N-]=[N+]=Nc1ccccc1[C@H]1OC(c2ccc(OCCCO)cc2)=N[C@@]1(CCS(=O)(=O)c1ccccc1)C(=O)N1CCCCC1 , what z-score is on record?
Result block: 2.73

Query block: Can you look up the measured z-score of CCOC(=O)[C@H]1C/C=C/C[C@H](C(=O)OCC)C(=O)O[C@H]2[C@@H](OC)O[C@H](CO)[C@@H](OC(=O)Nc3ccc(OC)cc3)[C@@H]2OC1=O for me?
Result block: 3.56

----------
target: Neurogenic locus notch homolog protein 3 (Homo sapiens) (UniProt Q9UM47); assay: NOTCH3 binders on small-molecule microarray, primary screen, biochemical, 635/667 nm fluorescence (AID 1096); conditions: NOTCH3 binding, 635 nm fluorescence, higher = more signal
Sequence (Q9UM47 whole entry, looked up): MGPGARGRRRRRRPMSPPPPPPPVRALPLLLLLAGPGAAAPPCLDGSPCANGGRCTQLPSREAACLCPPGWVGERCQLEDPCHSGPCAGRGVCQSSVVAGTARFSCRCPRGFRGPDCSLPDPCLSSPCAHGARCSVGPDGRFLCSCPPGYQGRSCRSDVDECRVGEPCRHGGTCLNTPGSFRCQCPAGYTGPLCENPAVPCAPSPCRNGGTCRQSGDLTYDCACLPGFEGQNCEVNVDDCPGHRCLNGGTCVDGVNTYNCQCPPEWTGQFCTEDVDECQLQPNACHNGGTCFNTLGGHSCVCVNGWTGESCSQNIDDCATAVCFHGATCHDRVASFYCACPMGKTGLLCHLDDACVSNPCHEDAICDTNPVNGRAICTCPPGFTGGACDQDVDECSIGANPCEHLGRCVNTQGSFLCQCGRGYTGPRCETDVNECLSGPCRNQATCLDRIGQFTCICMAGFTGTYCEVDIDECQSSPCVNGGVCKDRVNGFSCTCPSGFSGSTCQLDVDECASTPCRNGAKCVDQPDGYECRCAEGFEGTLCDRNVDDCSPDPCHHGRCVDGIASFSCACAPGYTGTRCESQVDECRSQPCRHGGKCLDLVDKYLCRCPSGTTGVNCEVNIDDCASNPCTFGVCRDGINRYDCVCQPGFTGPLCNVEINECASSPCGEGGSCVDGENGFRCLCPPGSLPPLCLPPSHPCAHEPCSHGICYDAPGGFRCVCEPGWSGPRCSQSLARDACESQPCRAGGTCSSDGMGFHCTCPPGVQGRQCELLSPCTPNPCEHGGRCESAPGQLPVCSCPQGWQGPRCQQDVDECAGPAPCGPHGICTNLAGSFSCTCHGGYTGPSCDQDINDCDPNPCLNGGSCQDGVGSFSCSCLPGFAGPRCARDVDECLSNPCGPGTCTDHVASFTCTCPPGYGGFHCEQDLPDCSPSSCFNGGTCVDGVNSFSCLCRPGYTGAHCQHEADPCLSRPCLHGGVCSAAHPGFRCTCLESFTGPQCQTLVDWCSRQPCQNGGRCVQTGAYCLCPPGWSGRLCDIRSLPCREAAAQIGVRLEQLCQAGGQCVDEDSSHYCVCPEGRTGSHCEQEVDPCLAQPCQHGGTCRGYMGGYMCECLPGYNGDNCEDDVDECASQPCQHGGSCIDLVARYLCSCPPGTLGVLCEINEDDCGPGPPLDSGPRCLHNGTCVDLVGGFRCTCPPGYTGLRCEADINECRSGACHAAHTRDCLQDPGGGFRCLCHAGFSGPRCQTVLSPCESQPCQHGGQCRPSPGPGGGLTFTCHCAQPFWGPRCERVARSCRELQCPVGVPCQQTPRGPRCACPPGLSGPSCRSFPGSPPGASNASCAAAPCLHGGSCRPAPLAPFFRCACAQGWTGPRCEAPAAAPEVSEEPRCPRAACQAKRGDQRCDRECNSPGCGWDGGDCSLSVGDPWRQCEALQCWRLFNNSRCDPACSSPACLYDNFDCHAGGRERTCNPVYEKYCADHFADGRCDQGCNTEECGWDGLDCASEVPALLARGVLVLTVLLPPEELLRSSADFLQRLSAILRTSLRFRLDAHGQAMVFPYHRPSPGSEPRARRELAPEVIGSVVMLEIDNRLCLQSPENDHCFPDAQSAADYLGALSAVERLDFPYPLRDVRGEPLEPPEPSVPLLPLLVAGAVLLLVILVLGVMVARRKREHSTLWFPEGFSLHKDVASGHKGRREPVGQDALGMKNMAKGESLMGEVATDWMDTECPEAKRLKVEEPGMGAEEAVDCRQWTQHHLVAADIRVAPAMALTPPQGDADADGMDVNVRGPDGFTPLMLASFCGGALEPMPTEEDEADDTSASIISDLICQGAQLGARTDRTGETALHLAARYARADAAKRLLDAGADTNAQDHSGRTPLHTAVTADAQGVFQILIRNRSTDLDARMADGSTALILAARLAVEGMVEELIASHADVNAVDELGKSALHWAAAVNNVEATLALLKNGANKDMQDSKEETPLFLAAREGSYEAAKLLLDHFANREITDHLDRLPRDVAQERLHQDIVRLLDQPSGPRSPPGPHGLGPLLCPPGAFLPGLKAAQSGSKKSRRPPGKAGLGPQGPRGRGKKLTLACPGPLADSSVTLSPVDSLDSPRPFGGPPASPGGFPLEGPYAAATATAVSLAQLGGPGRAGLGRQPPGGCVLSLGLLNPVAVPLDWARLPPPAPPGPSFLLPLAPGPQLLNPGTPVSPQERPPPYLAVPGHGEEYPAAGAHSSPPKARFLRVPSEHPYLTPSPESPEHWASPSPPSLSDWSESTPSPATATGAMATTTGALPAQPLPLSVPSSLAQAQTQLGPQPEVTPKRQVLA
endpoint: composite z-score
Give your answer as a number; write no unit.

Query block: Reported composite z-score for CN(C)CCCNC(=O)[C@@H]1c2ccccc2C(=O)N(CC23CC4CC(CC(C4)C2)C3)[C@H]1c1ccc(CO)cc1 : what is it?
Result block: 1.05

Query block: Item under review: CC(C)(C)OC(=O)CC[C@]1(C(=O)O)N=C(c2ccc(OCCCO)cc2)O[C@H]1c1ccccc1CN=[N+]=[N-] . Reported composite z-score?
Result block: 0.168

Query block: Need composite z-score of C=C(COC)/C(=C/C[C@@H](OC(=O)c1ccncc1)c1cccc(OCCO)c1)c1cnc2ccccc2c1 , thanks.
Result block: 1.02

Query block: Which value of composite z-score has been reported for O=C1NC(=O)C2C1C=CC(C(O)c1ccc3c(c1)OCO3)N2Nc1ccccn1 (centres undefined) in the records?
Result block: 0.552

----------
assay: modulators of S6 phosphorylation in cells, primary screen, cell-based, A549, cytoblot, luminescence, serum-stimulated (AID 1158); details: A549 phospho-S6 cytoblot, 5 h, higher = more signal;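 also: serum-stimulated A549 lung adenocarcinoma cells; signal is phosphorylated S6 detected by cytoblot immunostaining with HRP secondary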
endpoint: z-score

Query block: For the compound shown here, C=C(C(=O)CC[C@H](OC(=O)c1cccnc1)c1cccc(OCCO)c1)C(C)C , give the reported z-score.
Result block: -0.0915

Query block: Query: z-score; subject: CC(C)N1CC=CC23O[C@@H]4C=CCCOC(=O)C4[C@H]2C(=O)N(CCO)[C@@H]3C1=O (stereo not given in full)
Result block: 0.468

Query block: Using the record for O=C1C2C=CC(C(O)c3cc(C(F)(F)F)cc(C(F)(F)F)c3)N(Nc3ccc([N+](=O)[O-])cc3)C2C(=O)N1c1ccccc1 (stereo not given) , report its z-score.
Result block: -0.431

Query block: What z-score value was documented for this compound, C=CCN1C(=O)[C@@]2(O[C@@H](CCO)[C@H]([Si](C)(C)c3ccc(OC)cc3)[C@H]2C)c2cc(N3C(=O)c4ccccc4Oc4ccccc43)ccc21 ?
Result block: 0.502

Query block: Recorded z-score of CC(C)N1C(=O)[C@@]2(c3ccc([N+](=O)[O-])cc3)CC(=O)N(C3CCCCC3)[C@@H]2c2ccc(CO)cc21 , please.
Result block: 0.254

Query block: I have this compound here, CCCNC(=O)[C@@]1(c2ccc([N+](=O)[O-])cc2)CC(=O)N(C2CCCCC2)[C@@H]1c1ccc(CO)cc1I , and I need its recorded z-score.
Result block: -0.275

Query block: Entry [N-]=[N+]=NCc1ccccc1C[C@@]1(C(N)=O)N=C(c2ccc(OCCCO)cc2)O[C@@H]1c1ccccc1CN=[N+]=[N-] has what z-score?
Result block: -0.107

Query block: # z-score lookup, item C[C@H]1C2=C3C(CC[C@H]4C(OCc5ccc(F)cc5C(F)(F)F)OC[C@](C)([C@@H]34)N(C(=O)OC(C)(C)C)C2)C2COC(=O)OCC21 (stereo not given in full)
Result block: -0.139

Query block: I have this compound here, C=CCN1Cc2ccccc2C[C@@]2(N=C(c3ccc(OCCCO)cc3)O[C@H]2c2ccccc2)C1=O , and I need its recorded z-score.
Result block: 0.624

Query block: Item under review: CCCCN1CC=CC23O[C@@H]4/C=C\CCC(C)OC(=O)C4[C@H]2C(=O)N(CCCCCCO)[C@@H]3C1=O (stereo not given in full) . Reported z-score?
Result block: 1.81

Query block: Can you share its z-score? I mean this compound: CO[C@H]1O[C@H](CO)[C@@H](OC(=O)c2ccc(Br)cc2)[C@@H]2OC(=O)[C@@H](Cc3ccc4ccccc4c3)C/C=C/C[C@H](Cc3ccc4ccccc4c3)C(=O)O[C@@H]12
Result block: 1.74

Query block: Name the reported z-score value associated with the compound CN(C)C(=O)[C@]1(CCC(=O)OC(C)(C)C)N=C(c2ccc(OCCCO)cc2)O[C@@H]1c1ccccc1
Result block: -0.408

Query block: Item under review: COc1cc2c(cc1OC)CN(C(=O)[C@@H]1[C@H]3C(=O)O[C@H](c4ccccc4)[C@H](c4ccccc4)N3[C@H](c3ccccc3OCCO)[C@@]13C(=O)Nc1ccc(C#CC4(O)CCCCCC4)cc13)CC2 . Reported z-score?
Result block: 0.454

Query block: Can you look up the measured z-score of O=C1OC[C@@H](c2ccccc2)N2CC(/C=C/c3ccccc3)=CC12 (stereo not given in full) for me?
Result block: -0.126

Query block: z-score for CC1CC/C=C\[C@H]2OC34C=CCN(C(C)C)C(=O)[C@H]3N(CCCCCO)C(=O)[C@@H]4C2C(=O)O1 (stereo not given in full) ?
Result block: -0.61

----------
tested on: Chordin-like protein 2 (CHRDL2); assay: CHRDL2 small-molecule binders, primary screen, biochemical, small-molecule microarray, 635 nm fluorescence (AID 1126); settings: small-molecule microarray binding, fluorescence 635 nm; higher = more signal;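 also: printed compound slides probed with Chrdl2 protein at 4 µg/mL for 1 h at 4 C; score merges 667 nm emission intensity with signal to noise over three replicate slides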
Can you tell me composite z-score for the items I'm about to list?
Lab note: record just the number, no unit beside it.

Query block: Which composite z-score value belongs to Cc1ccc(C(C)CC(O)C2C=CC3C(=O)N(c4ccccc4)C(=O)C3N2Nc2ccc(C(C)C)cc2)o1 (centres undefined) ?
Result block: -0.527

Query block: Query: composite z-score; subject: CO[C@H]1O[C@H](CO)[C@@H](OC(=O)c2ccc(Br)cc2)[C@@H]2OC(=O)[C@@H](Cc3ccc4ccccc4c3)C/C=C/C[C@H](Cc3ccc4ccccc4c3)C(=O)O[C@@H]12
Result block: -0.517

Query block: Fill in the blank: the reported composite z-score of O=C1O[C@@H](c2ccccc2)[C@@H](c2ccccc2)N2[C@@H](c3ccccc3OCCO)[C@]3(C(=O)Nc4ccc(C#CCCO)cc43)[C@@H](C(=O)N3CCN(c4ncccn4)CC3)[C@H]12 is ____.
Result block: 0.0179

Query block: I'd like to know its composite z-score. The compound in question is C=C(C(=O)CC[C@H](OC(=O)c1cccnc1)c1ccc(CO)o1)C(C)C
Result block: 0.302
